Please go through the items and note down their inhibition.
- test: growth inhibition of WT strain, primary screen, mitochondrial fusion inhibitor project, WT and mutant strains, chemical genetic (AID 1362)
- condition-details: mitochondrial fusion phenotypic screen, WT strain, growth inhibition; at 10 µM; stronger effect = higher value
Hit rate of the full screen: of about 190,000 compounds, about 4,000 (2.1%) were called active. The entries come from a sample that favours actives as a whole.
Answers are plain numbers, in %.

Worked cases, answers included:
>>> reported_result("CCOC(=O)N1CCN(S(=O)(=O)c2cc(Br)cc3c2N(C(=O)C2CC2)CC3)CC1")
-4.28
>>> reported_result("O=c1c(-c2ccc3c(c2)OCCO3)c(C(F)(F)F)oc2cc(O)cc(O)c12")
70.7
>>> reported_result("CCN(c1ccc2c(c1)OCO2)S(=O)(=O)c1cc(Br)cc2c1N(C(=O)C1CC1)CC2")
82.3
>>> reported_result("COc1ccc(-c2onc(C)c2-c2ccc3c(c2)OCCO3)c(O)c1")
21.9

With those in mind, consider the next compound.
Inquiry: Answer with the recorded inhibition for the compound listed here: CS(=O)(=O)N(CC(=O)N1CCN(Cc2ccc3c(c2)OCO3)CC1)c1ccc2c(c1)OCO2
Reply text: -12
